assay protocol: MTT assay, cell viability of RAW264.7 cells
Assay type: cell-based
condition description: mouse, RAW264.7 macrophage cells; half inhibitory of RAW264.7 cells, cell survival, n = 3
Below: a set of entries, each annotated with reported CC50.

# compound, rel, CC50 [µM]
data = [
    ("[H]/N=C(/NC)NCCC[C@H](N)C(=O)O [l-NMMA, NG-monnomycin-l-arginine, reference compound]", ">", 50),
    ("CCCCCCCCCCCC(=O)OC12CC(C)C34C=C(C)C(OC(=O)C(C)C(C)C)C3(O)C(O)C(CO)=CC(C4=O)C1C2(C)C (centres unmarked)", "=", 20.3),
]
